# experimentalSystem: S. aureus PBP4 (Staphylococcus aureus, UniProt P72355)
# Sequence (P72355 25-431): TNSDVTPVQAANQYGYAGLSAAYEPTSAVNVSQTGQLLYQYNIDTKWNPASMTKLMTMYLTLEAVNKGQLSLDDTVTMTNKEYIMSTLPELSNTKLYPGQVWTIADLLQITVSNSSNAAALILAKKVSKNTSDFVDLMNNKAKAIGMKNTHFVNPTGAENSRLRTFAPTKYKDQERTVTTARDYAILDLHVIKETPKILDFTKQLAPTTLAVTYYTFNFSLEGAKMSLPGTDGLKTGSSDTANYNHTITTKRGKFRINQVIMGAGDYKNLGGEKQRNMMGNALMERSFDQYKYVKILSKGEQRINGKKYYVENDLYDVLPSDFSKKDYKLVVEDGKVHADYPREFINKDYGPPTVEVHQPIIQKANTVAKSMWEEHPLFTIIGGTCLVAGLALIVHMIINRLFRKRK
# procedureDetails: In vitro real-time D,D-transpeptidation assay using Rf470 and diacetyl-L-lysine-D-alanine-D-alanine substrate
# Type: biochemical
# runConditions: antibiotics 0.1 equiv. to the substrate
# Description: FIG. 12A depicts an exemplary scheme for the assay procedure for in vitro D,D-transpeptidation assays using Rf470 and isolated S. aureus PBP4. FIG. 12E depicts screening of antibiotic effect on S. aureus PBP4 activity. […] Rf470, the synthetic substrate and S. aureus PBP4 were incubated in a 96-well plate and the emission fluorescence was measured overtime using a plate reader (5-minute interval, 1 hour in total, FIG. 12A). […]
measuredParameter: Effect on initial rate of fluorescence increase (PBP4 enzyme reaction)

> print(dat)
                                  smilesstr      recordedresult
1  CC1(C)S[C@@H]2[C@H](NC(=O)[C@H](N)c3ccccc3)C(=O)N2[C@H]1C(=O)O  partial inhibition
2  CC1(C)S[C@@H]2[C@H](NC(=O)Cc3ccccc3)C(=O)N2[C@H]1C(=O)O  partial inhibition

----------
# procedureDetails: Measurement of thermal stability of FMR-DAAs
# Format: physicochemical
# runConditions: PBS (pH 7.4), 24-hours incubation at 60° C.
Below: a set of entries, each annotated with reported Thermo-stability (signal retention of absorbance vs initial value).
Expressed in %, but write only the number.

Here's what some known entries look like.
> print(dat)
                                   molecule  measureunit  recordedresult
1  N#CC(=Cc1ccc(-c2ccc3c(c2)CCCN3CCC(=O)O)s1)C(=O)NCCCCC(N)C(=O)O (stereo in doubt) [Rf490]            %            96.9
2  N#C/C(=C\c1ccc2c(c1)CCCN2CCC(=O)NCCCC[C@@H](N)C(=O)O)C(=O)O [Rf420]            %            99.8
3  N#C/C(=C\c1ccc(-c2ccc3c(c2)CCCN3CCC(=O)NCCCC[C@@H](N)C(=O)O)s1)C(=O)O [Rf470]            %            99.4

Turning now to a further molecule:
For this molecule ( NC(CNC(=O)c1cc2ccc(O)cc2oc1=O)C(=O)O (stereo not shown) [HADA, reference compound] ), measured Thermo-stability (signal retention of absorbance vs initial value) is 80.0

----------
# procedureDetails: UV-Vis spectra and calibration curve of FMR-DAAs (excitation/emission maxima, absorptivity)
# Format: physicochemical
# runConditions: PBS (pH 7.4) containing 50% glycerol; scan range 350 to 800 nm
measuredParameter: Max. λEx
Number, no unit, nothing else.

Here's what some known entries look like.
> print(dat)
                                   compound  recordedresult
1  N#CC(=Cc1ccc(-c2ccc3c(c2)CCCN3CCC(=O)O)s1)C(=O)NCCCCC(N)C(=O)O (stereo in doubt)             490
2  NC(CNC(=O)c1cc2ccc(O)cc2oc1=O)C(=O)O (stereo not shown) [HADA, reference compound]             400
3  N#C/C(=C\c1ccc2c(c1)CCCN2CCC(=O)NCCCC[C@@H](N)C(=O)O)C(=O)O             420

For this compound ( "N#C/C(=C\c1ccc(-c2ccc3c(c2)CCCN3CCC(=O)NCCCC[C@@H](N)C(=O)O)s1)C(=O)O" ), measured Max. λEx is 470

----------
Below: a set of entries, each annotated with reported Max. λEm.
# procedureDetails: UV-Vis spectra and calibration curve of FMR-DAAs (excitation/emission maxima, absorptivity)
# Assay type: physicochemical
# runConditions: PBS (pH 7.4) containing 50% glycerol; scan range 350 to 800 nm
Number, no unit, nothing else.

Here's what some known entries look like.
> print(dat)
                                   molecule  recordedresult
1  NC(CNC(=O)c1cc2ccc(O)cc2oc1=O)C(=O)O (stereo not shown) [HADA, reference compound]             450
2  N#C/C(=C\c1ccc2c(c1)CCCN2CCC(=O)NCCCC[C@@H](N)C(=O)O)C(=O)O [Rf420]             490
3  N#C/C(=C\c1ccc(-c2ccc3c(c2)CCCN3CCC(=O)NCCCC[C@@H](N)C(=O)O)s1)C(=O)O [Rf470]             640

Turning now to a further molecule:
For this molecule ( N#CC(=Cc1ccc(-c2ccc3c(c2)CCCN3CCC(=O)O)s1)C(=O)NCCCCC(N)C(=O)O (stereo in doubt) [Rf490] ), measured Max. λEm is 660

Data origin, for the record: patent US11168077B2
